Target: T1, human MSLN-R3 on HEK293T-hMSLN-R3 recombinant cells (human, UniProt Q13421 487-606)
T1 construct: the C-terminal limit is uncertain; also called human MSLN-R3 membrane protein
T1 sequence (Q13421 495-614): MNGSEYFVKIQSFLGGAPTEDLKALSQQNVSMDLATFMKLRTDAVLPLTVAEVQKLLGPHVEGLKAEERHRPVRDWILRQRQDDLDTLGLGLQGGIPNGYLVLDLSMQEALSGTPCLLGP
Test: FACS, HEK293T-hMSLN-R3 cells
MEASURED_PROPERTY: EC50 (nM)
The answer is to be given in nM; state only the numeric part.

Check out these entries, answers already filled in.
# input Requested read-out: EC50. Entry: F7.44.20-H7 (scFv, not shown: small tags and cut ends, also called S009-F7.44.20 humanized antibody VH1a + VL3) scFv: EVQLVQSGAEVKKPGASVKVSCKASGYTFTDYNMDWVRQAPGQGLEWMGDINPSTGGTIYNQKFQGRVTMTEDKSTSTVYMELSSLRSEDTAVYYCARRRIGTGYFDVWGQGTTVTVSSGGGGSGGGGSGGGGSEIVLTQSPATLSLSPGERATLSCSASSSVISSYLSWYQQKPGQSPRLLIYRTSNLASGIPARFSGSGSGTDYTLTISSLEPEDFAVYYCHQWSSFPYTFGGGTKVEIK
# output 2.12

# input Requested read-out: EC50. Entry: F7.44.20-H3 (scFv, not shown: small tags and cut ends, also called S009-F7.44.20 humanized antibody VH1 + VL3) scFv: EVQLVQSGAEVKKPGASVKVSCKASGYTFTDYNMDWVRQAPGQGLEWMGDINPSTGGTIYNQKFNGRVTMTEDKSTSTVYMELSSLRSEDTAVYYCARRRIGTGYFDVWGQGTTVTVSSGGGGSGGGGSGGGGSEIVLTQSPATLSLSPGERATLSCSASSSVISSYLSWYQQKPGQSPRLLIYRTSNLASGIPARFSGSGSGTDYTLTISSLEPEDFAVYYCHQWSSFPYTFGGGTKVEIK
# output 1.57

Kindly consider the entry below.
# input Requested read-out: EC50. Entry: F7.44.20-H4 (scFv, not shown: small tags and cut ends, also called S009-F7.44.20 humanized antibody VH1 + VL4) scFv: EVQLVQSGAEVKKPGASVKVSCKASGYTFTDYNMDWVRQAPGQGLEWMGDINPSTGGTIYNQKFNGRVTMTEDKSTSTVYMELSSLRSEDTAVYYCARRRIGTGYFDVWGQGTTVTVSSGGGGSGGGGSGGGGSEIVLTQSPATLSLSPGERATLSCSASSSVISSYLSWYQQKPGSSPRLLIYRTSNLASGIPARFSGSGSGTDYTLTISSLEPEDFAVYYCHQWSSFPYTFGGGTKVEIK
# output 2.64
